tested on: HUVEC/MSC spheroids viability; assay: Human HUVEC/MSC cell line growth inhibition [KRAS2]; settings: second compound 0.0949 µM; first compound 0.316 µM; stronger effect = lower value;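 further: percent of DMSO vehicle control luminescence so 100% = untreated viability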
ASSAY_METRIC: viability, T/C

Would you please look over these solved cases?
Problem: Quick one: viability, T/C for CC1(C)CCC(CN2CCN(c3ccc(C(=O)NS(=O)(=O)c4ccc(NCC5CCOCC5)c([N+](=O)[O-])c4)c(Oc4cnc5[nH]ccc5c4)c3)CC2)=C(c2ccc(Cl)cc2)C1 + C=CC(=O)N1CCN(c2nc(OCC3CCCN3C)nc3c2CCN(c2cccc4cccc(C)c24)C3)CC1CC#N ?
Result: 84.1%

Problem: Follow-up item: CC1OCC2(CCN(c3cnc(Sc4ccnc(N)c4Cl)c(N)n3)CC2)C1N (stereo not given) + C=CC(=O)N1CCN(c2nc(OCC3CCCN3C)nc3c2CCN(c2cccc4cccc(C)c24)C3)CC1CC#N
Result: 90%

Problem: Follow-up item: COC(=O)c1ccc2c(C(=Nc3ccc(N(C)C(=O)CN4CCN(C)CC4)cc3)c3ccccc3)c(O)[nH]c2c1 + C=CC(=O)N1CCN(c2nc(OCC3CCCN3C)nc3c2CCN(c2cccc4cccc(C)c24)C3)CC1CC#N
Result: 93.3%

Problem: Follow-up item: Cn1nccc1Nc1nccc(-c2cc3c(s2)C(C)(C)N(CCN2CCOCC2)C3=O)n1 + C=CC(=O)N1CCN(c2nc(OCC3CCCN3C)nc3c2CCN(c2cccc4cccc(C)c24)C3)CC1CC#N
Result: 106%

Switching to the query record.
Problem: Quick one: viability, T/C for COc1cc2nccc(Oc3ccc(NC(=O)C4(C(=O)Nc5ccc(F)cc5)CC4)cc3)c2cc1OC + C=CC(=O)N1CCN(c2nc(OCC3CCCN3C)nc3c2CCN(c2cccc4cccc(C)c24)C3)CC1CC#N ?
Result: 74%

###

Property: viability, T/C; scope: individual compounds
tested on: HUVEC/MSC spheroids viability; test: Human HUVEC/MSC cell line growth inhibition [KRAS2]; conditions: second compound 1 µM; first compound 0.00316 µM; stronger effect = lower value;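 further: percent of DMSO vehicle control luminescence so 100% = untreated viability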
Just the number in %, nothing appended.

Problem: Quick one: viability, T/C for CCN1CCN(Cc2ccc(Nc3ncc(F)c(-c4cc(F)c5nc(C)n(C(C)C)c5c4)n3)nc2)CC1 + CC1OCC2(CCN(c3cnc(Sc4ccnc(N)c4Cl)c(N)n3)CC2)C1N ?
Result: 94.3

Problem: Follow-up item: Cn1ncnc1[C@H]1c2n[nH]c(=O)c3cc(F)cc(c23)N[C@@H]1c1ccc(F)cc1 + CNCc1ccccc1-c1csc(C(C)Nc2nc(C)nc3cc(OC)c(OC)cc23)c1
Result: 67

Problem: Follow-up item: CN(C)C/C=C/C(=O)Nc1cc2c(Nc3ccc(F)c(Cl)c3)ncnc2cc1O[C@H]1CCOC1 + COc1cc2nc(C)nc(NC(C)c3cc(N)cc(C(F)(F)F)c3)c2cc1OC1CCOC1
Result: 97.6

Problem: Follow-up item: Cn1ncnc1[C@H]1c2n[nH]c(=O)c3cc(F)cc(c23)N[C@@H]1c1ccc(F)cc1 + C=CC(=O)N1CCN(c2nc(=O)n(-c3c(C)ccnc3C(C)C)c3nc(-c4c(O)cccc4F)c(F)cc23)C(C)C1
Result: 95.4

Problem: Follow-up item: CC(C)n1nc(-c2ccc3oc(N)nc3c2)c2c(N)ncnc21 + COc1cc2nc(C)nc(NC(C)c3cc(N)cc(C(F)(F)F)c3)c2cc1OC1CCOC1
Result: 49.3

***
Problem: Quick one: viability, T/C for Cn1ncnc1[C@H]1c2n[nH]c(=O)c3cc(F)cc(c23)N[C@@H]1c1ccc(F)cc1 + CC1OCC2(CCN(c3cnc(Sc4ccnc(N)c4Cl)c(N)n3)CC2)C1N ?
Result: 95.4

Problem: Follow-up item: CCN1CCN(Cc2ccc(Nc3ncc(F)c(-c4cc(F)c5nc(C)n(C(C)C)c5c4)n3)nc2)CC1 + CNCc1ccccc1-c1csc(C(C)Nc2nc(C)nc3cc(OC)c(OC)cc23)c1
Result: 54.9

Problem: Follow-up item: CCN1CCN(Cc2ccc(Nc3ncc(F)c(-c4cc(F)c5nc(C)n(C(C)C)c5c4)n3)nc2)CC1 + COc1cc2nc(C)nc(NC(C)c3cc(N)cc(C(F)(F)F)c3)c2cc1OC1CCOC1
Result: 76.1

Problem: Follow-up item: CC(C)n1nc(-c2ccc3oc(N)nc3c2)c2c(N)ncnc21 + CNCc1ccccc1-c1csc(C(C)Nc2nc(C)nc3cc(OC)c(OC)cc23)c1
Result: 56.2

Problem: Follow-up item: CN(C)C/C=C/C(=O)Nc1cc2c(Nc3ccc(F)c(Cl)c3)ncnc2cc1O[C@H]1CCOC1 + CC1OCC2(CCN(c3cnc(Sc4ccnc(N)c4Cl)c(N)n3)CC2)C1N
Result: 106

Problem: Follow-up item: CC(C)n1nc(-c2ccc3oc(N)nc3c2)c2c(N)ncnc21 + CC1OCC2(CCN(c3cnc(Sc4ccnc(N)c4Cl)c(N)n3)CC2)C1N
Result: 43.4

Problem: Follow-up item: Cn1ncnc1[C@H]1c2n[nH]c(=O)c3cc(F)cc(c23)N[C@@H]1c1ccc(F)cc1 + COc1cc2nc(C)nc(NC(C)c3cc(N)cc(C(F)(F)F)c3)c2cc1OC1CCOC1
Result: 99.3

Problem: Follow-up item: CN(C)C/C=C/C(=O)Nc1cc2c(Nc3ccc(F)c(Cl)c3)ncnc2cc1O[C@H]1CCOC1 + C=CC(=O)N1CCN(c2nc(=O)n(-c3c(C)ccnc3C(C)C)c3nc(-c4c(O)cccc4F)c(F)cc23)C(C)C1
Result: 105

Problem: Follow-up item: CN(C)C/C=C/C(=O)Nc1cc2c(Nc3ccc(F)c(Cl)c3)ncnc2cc1O[C@H]1CCOC1 + CNCc1ccccc1-c1csc(C(C)Nc2nc(C)nc3cc(OC)c(OC)cc23)c1
Result: 86.5

Problem: Follow-up item: CC(C)n1nc(-c2ccc3oc(N)nc3c2)c2c(N)ncnc21 + C=CC(=O)N1CCN(c2nc(=O)n(-c3c(C)ccnc3C(C)C)c3nc(-c4c(O)cccc4F)c(F)cc23)C(C)C1
Result: 65

Problem: Follow-up item: CCN1CCN(Cc2ccc(Nc3ncc(F)c(-c4cc(F)c5nc(C)n(C(C)C)c5c4)n3)nc2)CC1 + C=CC(=O)N1CCN(c2nc(=O)n(-c3c(C)ccnc3C(C)C)c3nc(-c4c(O)cccc4F)c(F)cc23)C(C)C1
Result: 118

###

tested on: HUVEC/MSC spheroids viability; test: Human HUVEC/MSC cell line growth inhibition [KRAS2]; settings: second compound 1 µM; first compound 0.0316 µM; stronger effect = lower value;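 further: percent of DMSO vehicle control luminescence so 100% = untreated viability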
Property: viability, T/C; scope: individual compounds
Just the number in %, nothing appended.

Would you please look over these solved cases?
Problem: Quick one: viability, T/C for O=C(c1cc(Cc2n[nH]c(=O)c3ccccc23)ccc1F)N1CCN(C(=O)C2CC2)CC1 + COc1cc2nc(C)nc(NC(C)c3cc(N)cc(C(F)(F)F)c3)c2cc1OC1CCOC1 ?
Result: 86.5

Problem: Follow-up item: COc1cc(Nc2ncc3c(n2)-c2ccc(Cl)cc2C(c2c(F)cccc2OC)=NC3)ccc1C(=O)O + CC1OCC2(CCN(c3cnc(Sc4ccnc(N)c4Cl)c(N)n3)CC2)C1N
Result: 106

***
Problem: Quick one: viability, T/C for CC1OCC2(CCN(c3cnc(Sc4ccnc(N)c4Cl)c(N)n3)CC2)C1N (stereo not given) + C=CC(=O)N1CCN(c2nc(=O)n(-c3c(C)ccnc3C(C)C)c3nc(-c4c(O)cccc4F)c(F)cc23)C(C)C1 ?
Result: 101

Problem: Follow-up item: CCN1CCN(Cc2ccc(Nc3ncc(F)c(-c4cc(F)c5nc(C)n(C(C)C)c5c4)n3)nc2)CC1 + CC1OCC2(CCN(c3cnc(Sc4ccnc(N)c4Cl)c(N)n3)CC2)C1N
Result: 85.6

Problem: Follow-up item: O=C(c1cc(Cc2n[nH]c(=O)c3ccccc23)ccc1F)N1CCN(C(=O)C2CC2)CC1 + CNCc1ccccc1-c1csc(C(C)Nc2nc(C)nc3cc(OC)c(OC)cc23)c1
Result: 70

###

Property: viability, T/C; scope: individual molecules
tested on: HUVEC/MSC spheroids viability; experiment: Human HUVEC/MSC cell line growth inhibition [KRAS2]; conditions: second compound 0.1 µM; first compound 0.316 µM; stronger effect = lower value;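 further: percent of DMSO vehicle control luminescence so 100% = untreated viability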
Just the number in %, nothing appended.

Would you please look over these solved cases?
Problem: Quick one: viability, T/C for CC1(C)CCC(CN2CCN(c3ccc(C(=O)NS(=O)(=O)c4ccc(NCC5CCOCC5)c([N+](=O)[O-])c4)c(Oc4cnc5[nH]ccc5c4)c3)CC2)=C(c2ccc(Cl)cc2)C1 + CNCc1ccccc1-c1csc(C(C)Nc2nc(C)nc3cc(OC)c(OC)cc23)c1 ?
Result: 93.7

Problem: Follow-up item: CC(C)NCC(C(=O)N1CCN(c2ncnc3c2C(C)CC3O)CC1)c1ccc(Cl)cc1 (stereo not drawn) + COc1cc2nc(C)nc(NC(C)c3cc(N)cc(C(F)(F)F)c3)c2cc1OC1CCOC1
Result: 77.5

Switching to the query record.
Problem: Quick one: viability, T/C for Cn1nccc1Nc1nccc(-c2cc3c(s2)C(C)(C)N(CCN2CCOCC2)C3=O)n1 + COc1cc2nc(C)nc(NC(C)c3cc(N)cc(C(F)(F)F)c3)c2cc1OC1CCOC1 ?
Result: 110

Cited source for all entries: PubChem BioAssay AID2060912
